The origin of these recorded values is patent US20040067960A1.

Parameter: Ki. Scope: all listed entries.
target: dopamine D2 receptor (Homo sapiens, UniProt P14416); test: Dopamine D2 receptor binding ([3H]spiperone, CHO-hD2L membranes); conditions: [3H]spiperone 0.4 nM
Sequence (P14416 whole entry): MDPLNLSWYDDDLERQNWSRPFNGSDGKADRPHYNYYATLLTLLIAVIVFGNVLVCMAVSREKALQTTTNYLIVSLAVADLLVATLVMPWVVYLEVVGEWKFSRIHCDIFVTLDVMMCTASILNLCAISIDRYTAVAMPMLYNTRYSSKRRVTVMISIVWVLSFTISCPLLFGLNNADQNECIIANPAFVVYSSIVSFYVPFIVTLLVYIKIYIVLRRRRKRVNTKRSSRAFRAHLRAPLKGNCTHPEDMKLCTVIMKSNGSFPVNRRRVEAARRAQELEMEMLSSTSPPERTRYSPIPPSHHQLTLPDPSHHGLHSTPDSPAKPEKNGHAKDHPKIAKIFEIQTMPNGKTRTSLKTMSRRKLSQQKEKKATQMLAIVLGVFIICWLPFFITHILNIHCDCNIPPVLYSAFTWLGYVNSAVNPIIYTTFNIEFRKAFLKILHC

# COMPOUND, Ki
records = [
    ("O=C1CC(c2ccccc2)c2cccc(CCN3CCN(c4nsc5ccccc45)CC3)c2N1 (stereo not drawn)", "0.0138 µM"),
    ("CN1C(=O)CC(C)(C)c2cccc(CCN3CCN(c4nsc5ccccc45)CC3)c21", "0.0813 µM"),
    ("CC1(C)Cc2cccc(CCN3CCN(c4nsc5ccccc45)CC3)c2NC1=O", "0.0749 µM"),
]
